target: ADP-ribosylation factor GTPase-activating protein 1 (Rattus norvegicus); test: retest of rat ARFGAP1 GAP activity blockers – biochemical, fluorescence polarization, triplicate, confirmation (AID 651608); conditions: ARFGAP1-stimulated ARF1 GTP hydrolysis, GDP tracer FP; at 16.5 µM; hits give high values;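 note: 0% = Arfgap1 plus ARF1-GTP with DMSO and 100% = wells lacking Arfgap1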
The other results are listed elsewhere or left out.
Kind request: treat 10% as inclusive, so inhibition at 10% or higher is true (1), anything lower is false (0).

Example entries and their recorded answers appear below.
• C#C[C@]1(O)CC[C@H]2[C@@H]3CCC4=CC(=O)CC[C@@H]4[C@H]3CC[C@@]21CC = false (0)
• COC(=O)c1cc2c(c3c4ccccc4n(S(=O)(=O)c4cccc(C)c4)c13)C(=O)N(Cc1ccccc1)C2 = false (0)
• COc1ccc(Cl)cc1NC(=O)Cn1nc(-c2ccc(C)cc2)n(C)c1=S = false (0)
• COc1ccc(/C=C2\SC(=S)N(CCCC(=O)NC3CCCC3)C2=O)cc1OC = false (0)
• COc1ccc(NC(=O)c2cn(-c3ccccc3)nc2SC)cc1 = true (1)

Lookup: In plain terms: is recorded inhibition at least 10% for "CCO[C@@H]1OC(C(N)=O)=C[C@H](c2ccc(Br)cc2)[C@H]1CCCO" ?
Found: false (0)

Lookup: Next record, please: COc1ccc(CNC(=O)C(Cc2ccccc2)n2cccc2)cc1 (stereo not given)
Found: false (0)

Lookup: Do the same for "O=C(O)CCn1cc(/C=C/C(=O)c2ccc(Cl)cc2)c(-c2cccc(Br)c2)n1" please
Found: false (0)

Lookup: Check Cc1ccc2nc(SCC(=O)N3CC(C)OC(C)C3)nc(=O)n2c1 (stereo not given) too.
Found: true (1)

Lookup: Same lookup for "COCCNc1cc(-c2ccccc2)nc2cc(-c3cccc(F)c3)nn12" , please.
Found: true (1)
